# assay-info: Plasma pharmacokinetics of ceralasertib (HPLC-MS/MS, NCA)
# Format: in vivo, human
# details: human, plasma, oral, 20 mg, 20 mg day 1; 2 h; read-out: Plasma concentration, individual patients

molecule | concentration at 2 h [ng/mL]
C[C@@H]1COCCN1c1cc(C2([S@](C)(=N)=O)CC2)nc(-c2cc[nH]c3nccc2-3)n1 [ceralasertib] | 757

====

# assay-info: Plasma pharmacokinetics of ceralasertib (HPLC-MS/MS, NCA)
# Type: in vivo, human
# details: human, plasma, oral; 160 and 240 mg dose levels; read-out: Mean terminal elimination half-life
# Description: Intensive PK sampling in part A occurred after a single dose from predose up to 24 to 72 hours and again at day 15 and day 29 of continuous dosing. Participants fasted for 1 hour before and 2 hours after dosing for PK assessment. In part B, sampling coincided with day 15 PD assessments. […] Evaluated PK […] maximum observed plasma concentration (Cmax), time to Cmax (tmax), and apparent terminal half-life (t1/2) calculated as ln/lambda-z where lambda-z (lz) is the apparent terminal phase rate- […]

sample-smiles | half-life
C[C@@H]1COCCN1c1cc(C2([S@](C)(=N)=O)CC2)nc(-c2cc[nH]c3nccc2-3)n1 | 11.2 to 12.8 h
